- TEST DETAILS: small-molecule microarray binders of probe aXIP, primary screen, biochemical, NeuroSMM set, 635/667 nm fluorescence (AID 1119);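 note: probe is the protein aXip251-270 applied at 1 µg/mL to compound-printed slides; binding of probe to printed compounds measured as 667 nm fluorescence plus signal to noise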
- TEST SETTINGS: higher = more signal, called active from +8 up or from −8 down
Entries get a class label from measured composite Z-score. See ranges: bucket A (below -0.2), bucket B (-0.2 to below 0.2), bucket C (0.2 or more)

| MOLECULE | CAT |
| --- | --- |
| CCOC(=O)[C@H](Cc1ccccc1)NC(=O)CCC1CC(OC(=O)NCc2ccc3c(c2)OCO3)CC2(CCCC(COC(=O)NCC3CCCCC3)O2)O1 (stereo partly drawn) | bucket C |
| CCCC=C(CCC)[C@@H](NC(=O)c1ccc(-c2ccccc2)cc1)c1ccc(C(=O)OC)cc1 | bucket B |
| CC(=O)OC[C@H]1O[C@H](CCON=C(C)CCC(=O)OC[C@H]2O[C@H](C#Cc3ccccc3)C=C[C@@H]2Oc2ccc(C)cc2)C=C[C@@H]1OC(C)=O | bucket B |

IN: Entry CC(CCN1CCc2nc(-c3ccccc3)c(-c3ccccc3)cc2C1)=NOC(C)CN1CCCCc2nc(C)c(C)cc21 (stereo not drawn) belongs to which category?
OUT: bucket C

IN: Which bin, given its composite Z-score, does O=C1C[C@@H](O)[C@@H](O)[C@@H]2[C@@H]3C(=O)N(c4ccc(F)cc4F)C(=O)[C@@H]3CC[C@@H]12 occupy?
OUT: bucket A

IN: Please indicate the class for COC(=O)CC=C[C@@H](C)[C@@H](C=NO[C@H](C)c1cn([C@@H]2COC[C@H]2O)nn1)OC based on its composite Z-score.
OUT: bucket A

IN: Bin this entry: O=C(NN=C1C[C@@H](O)[C@@H](O)[C@@H]2[C@@H]3C(=O)N(c4cccc(Oc5ccccc5)c4)C(=O)[C@@H]3CC[C@@H]12)OCc1ccccc1
OUT: bucket B

IN: // bin(item) where item = C[C@@H](c1ccccc1)N1C(=O)[C@H]2[C@H]3[C@H](O)[C@H](O)CC(=NNC(=O)OCc4ccccc4)[C@H]3CC[C@H]2C1=O
OUT: bucket C

IN: Lab note: sort COc1ccc(O[C@H]2C=C[C@@H](c3ccccc3)O[C@@H]2COC(=O)CCC(C)=NO[C@H](C)c2cn([C@@H]3COC[C@H]3O)nn2)cc1 into the matching composite Z-score band.
OUT: bucket C

IN: Determine which band this molecule sits in: CC1CC/C=C\[C@H]2OC34C=CCN(Cn5nnc6ccccc65)C(=O)[C@H]3N(CCO)C(=O)[C@@H]4C2C(=O)O1 (stereo partly drawn)
OUT: bucket C

IN: // bin(item) where item = CC(C)[C@H](NC(=O)OC(C)(C)C)[C@@H](O)CC(=O)OC(C)(C)C
OUT: bucket B

IN: Bin? CC(=O)OC[C@H]1O[C@H](CCON=C[C@@H](C)[C@H](OCc2ccccc2)C(C)C)C=C[C@@H]1OC(C)=O
OUT: bucket A

IN: Band for the recorded composite Z-score of CCN(CC)c1ccc(N2CC=CC34O[C@@H]5/C=C\CCC(C)OC(=O)C5[C@H]3C(=O)N(CCCO)[C@@H]4C2=O)cc1 (stereo partly drawn) ?
OUT: bucket C

IN: Just checking, what class would you give CN(C)CCCNC(=O)[C@@H]1c2ccccc2C(=O)N(Cc2cc(F)cc(C(F)(F)F)c2)[C@H]1c1ccc(CO)cc1 here?
OUT: bucket C

IN: Class label required: C#CCCCON=C1C[C@@H](O)[C@@H](O)[C@@H]2[C@@H]3C(=O)N([C@@H](C)c4ccccc4)C(=O)[C@@H]3CC[C@H]12
OUT: bucket A

IN: Which of the defined bands does the recorded composite Z-score of CCOC(=O)NN=C1C[C@@H](O)[C@@H](O)[C@@H]2[C@@H]3C(=O)N(C[C@@H]4CCCO4)C(=O)[C@@H]3CC[C@@H]12 sit within?
OUT: bucket A

IN: Where would [N-]=[N+]=NCc1ccccc1[C@@H]1OC(c2ccc(OCCCO)cc2)=N[C@]1(Cc1ccccc1)C(=O)N1CCOCC1 land among the classes by reported composite Z-score?
OUT: bucket B
